- test-summary: Distribution in plasma, lung homogenate, ELF and AMs after oral dose
- Type: in vivo, Sprague-Dawley rats
- measurement-context: both sexes, Sprague-Dawley, lung epithelial lining fluid (ELF); rat, single oral dose 100 mg/kg, 30 h; ELF volume taken as 393 μL/rat; read-out: Concentration, ELF
quantity: concentration at 30 h (ng/mL)
Just the number in ng/mL, nothing appended.

Query CN(C)C(=O)/C=C/C(=O)c1ccc(-c2ccncc2)cc1.Cl [IMB-YH-4py5-2H] yields concentration at 30 h of 50

###

- test-summary: Pharmacokinetic study in rats, single oral dose
- Type: in vivo, Sprague-Dawley rats
- measurement-context: both sexes, Sprague-Dawley; rat plasma, single oral dose 50 mg/kg
quantity: Cmax
Enter the number, and then the unit.

What the record says about CN(C)C(=O)/C=C/C(=O)c1ccc(-c2ccncc2)cc1.Cl [IMB-YH-4py5-2H] : Cmax is 367 ng/mL

###

- test-summary: Distribution in plasma, lung homogenate, ELF and AMs after oral dose
- Assay type: in vivo, Sprague-Dawley rats
- measurement-context: both sexes, Sprague-Dawley, alveolar macrophages (AMs); rat, single oral dose 100 mg/kg, 30 h; converted with reported volume of a single AM (Eq 1); read-out: Concentration, AMs
quantity: concentration at 30 h (ng/mL)
The reply should be a number in ng/mL, with the unit left off.

concentration at 30 h for "CN(C)C(=O)/C=C/C(=O)c1ccc(-c2ccncc2)cc1.Cl" is 25300

###

- test-summary: Distribution in plasma, lung homogenate, ELF and AMs after oral dose
- Assay type: in vivo, Sprague-Dawley rats
- measurement-context: both sexes, Sprague-Dawley, lung homogenate; rat, single oral dose 100 mg/kg, 0.5 h; read-out: Concentration, lung homogenate
quantity: concentration at 0.5 h (ng/g)
Provide the reading as a plain figure in ng/g.

For record "CN(C)C(=O)/C=C/C(=O)c1ccc(-c2ccncc2)cc1.Cl" the listed concentration at 0.5 h is 10900
